Reference source: patent US20020137929A1

Provide the recorded Herbicidal rating ECHORC for the entries that follow.
# Tested on: ECHORC (Watergrass (Calif.))
# method-description: Postemergence weed control under flooded paddy conditions
# Format: in vivo, Echinochloa oryzoides
# applied-conditions: Rate 0.2500 kg/ha, postemergence weeds, rated 3 to 4 weeks after treatment
One number for each entry.

CCOC(=O)CN1C(=O)C(CC(=O)NO)S/C1=N/c1cc(-n2c(=O)cc(C(F)(F)F)n(C)c2=O)c(F)cc1Cl (centres unmarked): 3.0
CN1C(=O)C(CC(=O)O)SC1=Nc1cc(-n2c(=O)cc(C(F)(F)F)n(C)c2=O)c(F)cc1Cl (centres unmarked): 5.0
C=CCOC(=O)CC1SC(=Nc2cc(-n3c(=O)cc(C(F)(F)F)n(C)c3=O)c(F)cc2Cl)N(CC=C)C1=O (centres unmarked): 7.0
C=CCN1C(=O)C(CC(=O)NS(=O)(=O)c2ccccc2)SC1=Nc1cc(-n2c(=O)cc(C(F)(F)F)n(C)c2=O)c(F)cc1Cl (centres unmarked): 0.0

q: Let me know recorded Herbicidal rating ECHORC for C#CCOC(=O)CC1SC(=Nc2cc(-n3c(=O)cc(C(F)(F)F)n(C)c3=O)c(F)cc2Cl)N(CC=C)C1=O (centres unmarked) , thanks.
a: 5.0

---

Provide the recorded CHEAL rating for the entries that follow.
# Tested on: CHEAL (Lambsquarters, Common)
# method-description: Preemergence herbicidal evaluation
# Type: in vivo, Chenopodium album
# applied-conditions: preemergence, 0.0625 kg/ha, rated 4-5 weeks after treatment, 0-9 scale
Answers are plain numbers.

CN1C(=O)C(CC(=O)NS(=O)(=O)c2ccccc2)SC1=Nc1cc(-n2c(=O)cc(C(F)(F)F)n(C)c2=O)c(F)cc1Cl (stereo not shown) [Compound 102]: 5.0
C=CCN1C(=O)C(CC(=O)NS(C)(=O)=O)SC1=Nc1cc(-n2c(=O)cc(C(F)(F)F)n(C)c2=O)c(F)cc1Cl (stereo not shown) [Compound 96]: 2.0
C=CCN1C(=O)C(CC(=O)OCCF)SC1=Nc1cc(-n2c(=O)cc(C(F)(F)F)n(C)c2=O)c(F)cc1Cl (stereo not shown) [Compound 86]: 9.0

q: Let me know recorded CHEAL rating for C#CCOC(=O)CC1SC(=Nc2cc(-n3c(=O)cc(C(F)(F)F)n(C)c3=O)c(F)cc2Cl)N(C)C1=O (stereo not shown) [Compound 90] , thanks.
a: 9.0

---

# Test system: IPOHE (Morningglory, Ivyleaf)
# method-description: Preemergence herbicidal evaluation
# Format: in vivo, Ipomoea hederacea
# applied-conditions: rate 0.0625 kg/ha; rated 4-5 weeks after treatment
Provide the recorded Preemergence herbicidal rating IPOHE for the entries that follow.
Give bare numbers.

CCOC(=O)CN1C(=O)C(CC(=O)O)SC1=Nc1cc(-n2c(=O)cc(C(F)(F)F)n(C)c2=O)c(Cl)cc1Cl (stereo not drawn): 0.0
CCOC(=O)CN1C(=O)C(Cc2ccccc2OCC(=O)O)S/C1=N/c1cc(-n2c(=O)cc(C(F)(F)F)n(C)c2=O)c(F)cc1Cl (stereo not drawn): 0.0
CN1C(=O)C(CC(=O)O)SC1=Nc1cc(-n2c(=O)cc(C(F)(F)F)n(C)c2=O)c(F)cc1Cl (stereo not drawn): 6.0

Each of the following entries comes with a recorded value; kindly state Preemergence herbicidal rating IPOHE for each.
1. CCOC(=O)CN1CC(=O)N(CC(=O)OCC)C1=Nc1cc(-n2c(=O)cc(C(F)(F)F)n(C)c2=O)c(F)cc1Cl
2. CC(C)S(=O)(=O)NC(=O)CC1SC(=Nc2cc(-n3c(=O)cc(C(F)(F)F)n(C)c3=O)c(F)cc2Cl)N(C)C1=O (stereo not drawn)
3. C=CCOC(=O)CC1SC(=Nc2cc(-n3c(=O)cc(C(F)(F)F)n(C)c3=O)c(F)cc2Cl)N(CC=C)C1=O (stereo not drawn)

a:
3.0
0.0
1.0
